- tested target: plasma kallikrein (PKa) (Homo sapiens, UniProt P03952)
- Construct: purchased R & D 2497-SE
- Sequence (P03952 391-638 limits assumed): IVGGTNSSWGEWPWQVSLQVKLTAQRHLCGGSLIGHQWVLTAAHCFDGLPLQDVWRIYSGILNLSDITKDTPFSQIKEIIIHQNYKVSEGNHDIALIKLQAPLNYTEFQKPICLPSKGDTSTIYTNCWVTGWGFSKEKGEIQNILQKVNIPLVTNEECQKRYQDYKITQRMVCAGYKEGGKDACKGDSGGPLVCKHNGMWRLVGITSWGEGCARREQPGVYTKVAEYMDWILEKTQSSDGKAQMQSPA
- Sequence (P03952 20-390 partner limits assumed): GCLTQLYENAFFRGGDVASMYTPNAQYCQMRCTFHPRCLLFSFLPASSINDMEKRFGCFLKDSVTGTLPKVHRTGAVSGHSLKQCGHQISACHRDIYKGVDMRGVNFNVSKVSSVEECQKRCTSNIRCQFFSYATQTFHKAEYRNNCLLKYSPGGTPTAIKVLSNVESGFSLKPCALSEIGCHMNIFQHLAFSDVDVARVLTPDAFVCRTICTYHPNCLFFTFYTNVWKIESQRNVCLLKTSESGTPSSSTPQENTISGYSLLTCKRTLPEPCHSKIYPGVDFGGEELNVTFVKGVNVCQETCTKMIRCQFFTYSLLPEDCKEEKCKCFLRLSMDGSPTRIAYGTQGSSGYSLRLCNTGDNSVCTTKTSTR
- protocol text: Inhibitory activity against plasma kallikrein in vitro (fluorescence intensity enzyme assay, Pro-Phe-Arg-AMC substrate)
- Type: biochemical
- experimental parameters: plasma kallikrein enzyme assay, Pro-Phe-Arg-AMC substrate; read-out: PKa IC50
measurement label: IC50 (nM)
One number for each entry, in nM.

Sample answers from the record:
COc1ccnc(CNC(=O)c2cn(Cc3ccc(Cn4ccccc4=O)cc3)nc2CN2CC3(COC3)C2)c1F [Compound 238] :: 9.15
Cc1cnn(C)c1-c1nn(Cc2ccc(Cn3ccccc3=O)cc2)cc1C(=O)NCc1nccc(N(C)C)c1F [Compound 166] :: 4.59

Parameters: items (list). Returns: IC50 for each item.
1. COc1ccnc(CNC(=O)c2cc(Cc3ccc(Cn4ccccc4=O)cc3)cn2C)c1F [Compound 88]
2. COc1ccc(F)c(CNC(=O)c2cn(Cc3ccc(Cn4cc(F)ccc4=O)c(F)c3)nc2C2CC(F)(F)C2)c1F [Compound 228]
3. COCc1nn(Cc2ccc(Cn3ccccc3=O)cc2)cc1C(=O)NCc1[nH]c2cnccc2c1Cl [Compound 136]
4. Cc1cc(C(=N)N)nc(C)c1CNC(=O)c1cnn(Cc2ccc(CC3CC3)cc2)c1 [Compound 323]

**Result**
20.1
16.4
36.2
65.6

Parameters: items (list). Returns: IC50 for each item.
1. Cn1cnc2cnc(CNC(=O)c3cnn(Cc4ccc(Cn5ccccc5=O)cc4)c3)c(F)c21 [Compound 377]
2. O=C(NCc1ccc2ccncc2c1)c1cnn(Cc2ccc(Cn3ccccc3=O)cc2)c1 [Compound 197]
3. O=C(NCc1cc2ccncc2[nH]1)c1cn(Cc2ccc(Cn3ccccc3=O)cc2)nc1C(F)(F)F [Compound 155]

**Result**
[1.42, 164, 1.48]
